- assayedTarget: TnIYD Y112A/W82A/F88A (Thermotoga neapolitana, UniProt B9K712, F88A/W82A/Y112A)
quantityName: Kd (µM)
Numbers only, in µM.

QUERY: In one line, give reported Kd of the entry N[C@@H](Cc1ccc(O)cc1)C(=O)O .
RESULT: 1200

###

- assayedTarget: TnIYD (Thermotoga neapolitana)
- assaySummary: Active site ligand binding by quenching of FMNox fluorescence, wild-type TnIYD
quantityName: pKd
Numbers only, as −log10 of the molar value.

[[record]]
testsmiles = "N[C@@H](Cc1ccc(O)cc1)C(=O)O"
reading = 6.35


QUERY: In one line, give reported pKd of the entry Oc1ccccc1I .
RESULT: 4.51

###

- assayedTarget: TnIYD M41A (Thermotoga neapolitana, UniProt B9K712, M41A)
- assaySummary: Active site ligand binding by quenching of FMNox fluorescence, M41A variant
quantityName: pKd
One number for each entry, as −log10 of the molar value.

QUERY: In one line, give reported pKd of the entry N[C@@H](Cc1ccc(O)cc1)C(=O)O .
RESULT: 5.80

###

- assayedTarget: TnIYD M41F (Thermotoga neapolitana, UniProt B9K712, M41F)
- Sequence (B9K712 1-186 M41F): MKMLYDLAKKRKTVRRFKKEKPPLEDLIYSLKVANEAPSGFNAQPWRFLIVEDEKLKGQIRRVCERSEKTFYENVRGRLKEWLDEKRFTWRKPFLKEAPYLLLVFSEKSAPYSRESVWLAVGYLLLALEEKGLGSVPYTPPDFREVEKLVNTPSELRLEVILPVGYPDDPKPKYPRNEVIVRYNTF
- assaySummary: Active site ligand binding by quenching of FMNox fluorescence, M41F variant
quantityName: Kd (nM)
One number for each entry, in nM.

QUERY: State Kd on TnIYD M41F (Thermotoga neapolitana, UniProt B9K712, M41F). Entry: N[C@@H](Cc1ccc(O)cc1)C(=O)O [Tyr, tyrosine]
RESULT: 90
